Molecular target: ALK3 (BMPR1A) (Homo sapiens (Human))
Sequence (P36894 24-532): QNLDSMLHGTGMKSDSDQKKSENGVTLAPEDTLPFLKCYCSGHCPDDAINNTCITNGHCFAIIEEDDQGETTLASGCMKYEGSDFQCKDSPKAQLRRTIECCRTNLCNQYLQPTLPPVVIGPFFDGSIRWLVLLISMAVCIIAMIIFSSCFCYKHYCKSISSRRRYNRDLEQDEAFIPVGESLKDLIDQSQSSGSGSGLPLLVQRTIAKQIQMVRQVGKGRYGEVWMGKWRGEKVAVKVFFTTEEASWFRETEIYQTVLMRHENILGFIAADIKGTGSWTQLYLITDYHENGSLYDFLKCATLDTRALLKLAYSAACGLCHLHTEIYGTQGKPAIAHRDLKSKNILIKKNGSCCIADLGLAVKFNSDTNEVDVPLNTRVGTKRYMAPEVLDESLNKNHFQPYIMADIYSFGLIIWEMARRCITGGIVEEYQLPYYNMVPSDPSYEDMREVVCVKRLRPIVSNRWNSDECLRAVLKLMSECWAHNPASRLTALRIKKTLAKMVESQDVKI
Test: In vitro kinase assay (33P ATP, 10 μM ATP)
Type: biochemical
Conditions: read-out: Inhibition of ALK3 (IC50 μM)
Measured Quantity: IC50 (µM)
Give the value in µM but do not write µM after it.

# query: IC50 of entry Fc1ccc(Cl)cc1-c1cc(Nc2ccnc3[nH]ccc23)c(C2CC2)cn1 [compound 32]
333

---

Assay: Pharmacokinetics and bioavailability in male mice after a single dose
Assay type: in vivo
Conditions: mouse, plasma, intravenous, 2 mg/kg
Measured Quantity: Cmax (µM)
Give the value in µM but do not write µM after it.

# query: Cmax of entry CC(C)c1cnc(-c2cc(Cl)ccc2F)cc1Nc1ncncc1C(=O)NC[C@H](C)O (single isomer, unassigned) [12a]
7.15

---

Examples of compounds with documented Plasma concentration follow.
Test: Plasma and brain concentrations at 0.5 and 1 h
Type: in vivo, mice
Settings: PO 10 mg/kg, 1 h
Give the value in ng/mL but do not write ng/mL after it.

>>> endpoint_result("C=C(C)c1cnc(-c2cc(Cl)ccc2F)cc1Nc1ccncc1C(=O)NC[C@H](C)O")
1250

Field: next compound
# query: Plasma concentration of entry CC(C)c1cnc(-c2cc(Cl)ccc2F)cc1Nc1ccncc1C(=O)NC[C@H](C)O
905

---

Examples of compounds with documented Plasma concentration follow.
Assay: Plasma and brain concentrations at 0.5 and 1 h
Format: in vivo, mice
Conditions: PO 10 mg/kg, 0.5 h
Give the value in ng/mL but do not write ng/mL after it.

>>> endpoint_result("C=C(C)c1cnc(-c2cc(Cl)ccc2F)cc1Nc1ccncc1C(=O)NC[C@H](C)O")
1280

# query: Plasma concentration of entry CC(C)c1cnc(-c2cc(Cl)ccc2F)cc1Nc1ccncc1C(=O)NC[C@H](C)O
1570

---

Examples of compounds with documented Brain concentration follow.
Experiment: Plasma and brain concentrations at 0.5 and 1 h
Format: in vivo, mice
Conditions: IV 2 mg/kg, 0.5 h
Give the value in ng/mL but do not write ng/mL after it.

>>> endpoint_result("CC(C)c1cnc(-c2cc(Cl)ccc2F)cc1Nc1ccncc1C(=O)NC[C@H](C)O")
73.2

# query: Brain concentration of entry C=C(C)c1cnc(-c2cc(Cl)ccc2F)cc1Nc1ccncc1C(=O)NC[C@H](C)O
173
